# tested on: Lysine-specific demethylase 5A (Homo sapiens, UniProt P29375)
# Sequence (P29375 whole entry): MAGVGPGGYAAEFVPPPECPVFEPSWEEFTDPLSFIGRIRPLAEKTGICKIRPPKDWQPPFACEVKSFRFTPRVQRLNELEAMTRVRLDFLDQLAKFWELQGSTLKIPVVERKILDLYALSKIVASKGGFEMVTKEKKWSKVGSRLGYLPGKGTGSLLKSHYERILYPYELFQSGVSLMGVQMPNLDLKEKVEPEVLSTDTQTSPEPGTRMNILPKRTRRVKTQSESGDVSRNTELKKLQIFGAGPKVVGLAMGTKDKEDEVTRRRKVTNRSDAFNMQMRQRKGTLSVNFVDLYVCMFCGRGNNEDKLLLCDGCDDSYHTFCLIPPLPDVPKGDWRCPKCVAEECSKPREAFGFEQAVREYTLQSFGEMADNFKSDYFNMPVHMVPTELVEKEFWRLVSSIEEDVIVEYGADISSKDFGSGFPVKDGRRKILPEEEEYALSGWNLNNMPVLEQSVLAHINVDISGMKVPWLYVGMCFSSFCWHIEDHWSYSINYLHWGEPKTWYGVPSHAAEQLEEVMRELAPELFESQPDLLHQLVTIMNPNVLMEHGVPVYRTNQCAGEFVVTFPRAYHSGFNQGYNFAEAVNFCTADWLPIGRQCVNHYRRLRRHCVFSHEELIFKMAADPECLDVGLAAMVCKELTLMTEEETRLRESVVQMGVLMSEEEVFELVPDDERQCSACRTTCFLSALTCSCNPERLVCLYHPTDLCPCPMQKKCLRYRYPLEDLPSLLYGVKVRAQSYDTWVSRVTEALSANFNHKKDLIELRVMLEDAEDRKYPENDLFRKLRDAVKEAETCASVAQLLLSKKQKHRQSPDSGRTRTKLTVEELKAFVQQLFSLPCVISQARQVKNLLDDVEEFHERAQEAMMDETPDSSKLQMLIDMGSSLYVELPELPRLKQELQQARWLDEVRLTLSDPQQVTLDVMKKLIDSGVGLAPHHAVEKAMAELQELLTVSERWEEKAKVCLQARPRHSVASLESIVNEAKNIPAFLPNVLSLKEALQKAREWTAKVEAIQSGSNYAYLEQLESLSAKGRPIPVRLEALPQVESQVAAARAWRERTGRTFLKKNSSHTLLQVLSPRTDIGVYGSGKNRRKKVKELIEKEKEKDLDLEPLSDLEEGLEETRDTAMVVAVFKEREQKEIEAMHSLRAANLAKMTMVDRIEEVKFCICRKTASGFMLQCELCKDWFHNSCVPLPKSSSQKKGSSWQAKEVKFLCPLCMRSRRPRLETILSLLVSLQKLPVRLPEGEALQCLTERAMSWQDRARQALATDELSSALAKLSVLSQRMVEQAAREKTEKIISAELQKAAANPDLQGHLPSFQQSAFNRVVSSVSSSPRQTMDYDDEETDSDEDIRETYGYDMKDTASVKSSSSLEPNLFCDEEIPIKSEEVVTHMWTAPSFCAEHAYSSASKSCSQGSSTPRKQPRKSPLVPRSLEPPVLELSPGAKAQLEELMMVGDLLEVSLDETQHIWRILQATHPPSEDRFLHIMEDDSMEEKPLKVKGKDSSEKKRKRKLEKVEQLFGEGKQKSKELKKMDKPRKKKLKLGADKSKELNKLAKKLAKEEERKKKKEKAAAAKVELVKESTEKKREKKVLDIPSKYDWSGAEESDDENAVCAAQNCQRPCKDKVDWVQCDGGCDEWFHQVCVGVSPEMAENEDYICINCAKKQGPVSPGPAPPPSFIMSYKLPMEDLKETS
# test description: Inhibition of KDM5A (unknown origin) using substrate peptide/ascorbate/2-OG/ Fe(2) as substrate at 10 uM preincubated for 15 mins followed by addition of substrate peptide/ ascorbate/2-OG/ Fe(2) measured after 1 hr by AlphaLISA method
test readout: inhibition

# get_value(readout='inhibition', item= NNc1ncc(F)cn1 ) 10%

// returns reported inhibition for input Oc1ccccc1/C=N/Nc1ncc(Cl)cn1 19%

Suppose we examine the compound Oc1ccccc1/C=N/Nc1nccc(N2CCOCC2)n1 ; what inhibition value has been reported? 42%

Endpoint output: inhibition of N#Cc1ccc(Nc2nc(NN)ncc2[N+](=O)[O-])cc1 . Value? 14%

Dear colleague, I am looking for the recorded inhibition of the following compound: O=C(O)c1ccnc(N/N=C/c2ccco2)n1 3%

Could you share which inhibition value was measured for Oc1ccccc1/C=N/Nc1ncc(F)c(N2CCOCC2)n1 ? 58%

Record request: inhibition value, item NNc1ncccn1 8%

----------
test readout: IC50 (nM)
Numbers only here, please. The scale is nM.

Look up IC50 with Probable JmjC domain-containing histone demethylation protein 2C (Homo sapiens) for this compound: NNc1nccc(C(=O)O)n1 1900

----------
So I've got a bunch of molecules here, and I need their IC50 values.
Write the value in µM as a bare number.

Recorded IC50 for NNc1nccc(C(=O)O)n1 with UniProtKB P29375, please? 0.22

Param readout= IC50; system= UniProtKB P29375; entry= Cc1ccc(C(=O)c2coc3c2C(=O)C(=O)C(Br)=C3)cc1 ; returns value. 5

Find IC50 (UniProtKB P29375) for the entry c1ccc(Cc2nnc3sc(-c4ccccn4)nn23)cc1 25

Field: IC50 (UniProtKB P29375). Entry: O=C(NNc1c2ccccc2nc2ccccc12)c1ccccn1 7

Lab note: need IC50 with UniProtKB P29375 for entry NNC(=O)c1ccc(O)cc1 , please look it up. 13

----------
# tested on: Lysine-specific demethylase 5A (Homo sapiens, UniProt P29375)
# test description: Inhibition of KDM5A (unknown origin) using substrate peptide/ascorbate/2-OG/ Fe(2) as substrate at 10 uM preincubated for 15 mins followed by addition of substrate peptide/ ascorbate/2-OG/ Fe(2) measured after 1 hr by AlphaLISA method
Field: inhibition. Provide a value for each of the compounds that follow.
The figure you give is taken to be in %; do not add the unit.

Find the recorded inhibition belonging to O=C(O)c1ccnc(N/N=C/c2ccccc2)n1 and report it. 0

Need inhibition, item NNc1ncc(F)c(N2CCOCC2)n1 0

Which inhibition reading was recorded for the compound Cc1ccnc(NN)n1 ? -6

Look up inhibition for this compound: NNc1nccc(-c2cccc(C(=O)O)c2)n1 26

Reported inhibition, compound NNc1nccc(C(=O)O)n1 : ____ 99

# get_value(readout='inhibition', item= Oc1ccccc1/C=N/Nc1ncccn1 ) 32

What measured inhibition goes with Cc1ccnc(N/N=C/c2ccccc2O)n1 ? 44

What inhibition value was documented for this compound, O=C(O)c1ccnc(N/N=C/c2ccccc2O)n1 ? 88
